- assayedSystem: T1, human LTβR extracellular domain fused with an Fc fragment at the C-terminus (human, UniProt P36941 31-227)
- T1 construct: extracellular domain; Bought; also called hLTβR; not shown: Fc fragment at the C-terminus
- T1 sequence (P36941 31-227): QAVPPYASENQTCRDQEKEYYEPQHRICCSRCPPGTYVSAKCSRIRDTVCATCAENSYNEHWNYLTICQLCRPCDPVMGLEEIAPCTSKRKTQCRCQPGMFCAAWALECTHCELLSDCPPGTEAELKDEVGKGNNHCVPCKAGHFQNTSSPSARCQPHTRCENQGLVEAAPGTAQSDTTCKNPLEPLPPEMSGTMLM
- assayExplanation: ELISA on coated target-Fc
assayMetric: EC50 (µg/mL)
Write the answer as a number in µg/mL, unit excluded.

Incoming: Bench note: what EC50 did LIGHT-34 (ligand, Printed mutations: T161S, L220S; Soluble protein carries an N-terminal His tag) DGPAGSWEQLIQERRSHEVNPAAHLTGANSSLTGSGGPLLWETQLGLAFLRGLSYHDGALVVTKAGYYYIYSKVQLGGVGCPLGLASSITHGLYKRTPRYPEELELLVSQQSPCGRATSSSRVWWDSSFLGGVVHLEAGEKVVVRVSDERLVRLRDGTRSYFGAFMV show?
Outgoing: 0.059

Incoming: Field entry: LIGHT-3 (ligand, Printed mutations: G150A, L220S; Soluble protein carries an N-terminal His tag) DGPAGSWEQLIQERRSHEVNPAAHLTGANSSLTGSGGPLLWETQLGLAFLRGLSYHDGALVVTKAGYYYIYSKVQLAGVGCPLGLASTITHGLYKRTPRYPEELELLVSQQSPCGRATSSSRVWWDSSFLGGVVHLEAGEKVVVRVSDERLVRLRDGTRSYFGAFMV
Outgoing: 0.0436

Incoming: Proceed to LIGHT-26 (ligand, Printed mutations: S160H, L220S, E222Q; Soluble protein carries an N-terminal His tag) DGPAGSWEQLIQERRSHEVNPAAHLTGANSSLTGSGGPLLWETQLGLAFLRGLSYHDGALVVTKAGYYYIYSKVQLGGVGCPLGLAHTITHGLYKRTPRYPEELELLVSQQSPCGRATSSSRVWWDSSFLGGVVHLEAGEKVVVRVSDQRLVRLRDGTRSYFGAFMV
Outgoing: 0.0727

Incoming: Same read-out for LIGHT-39 (ligand, Printed mutations: L158P, L166M, L220M; Soluble protein carries an N-terminal His tag) DGPAGSWEQLIQERRSHEVNPAAHLTGANSSLTGSGGPLLWETQLGLAFLRGLSYHDGALVVTKAGYYYIYSKVQLGGVGCPLGPASTITHGMYKRTPRYPEELELLVSQQSPCGRATSSSRVWWDSSFLGGVVHLEAGEKVVVRVMDERLVRLRDGTRSYFGAFMV ?
Outgoing: 0.0542

Incoming: Lookup LIGHT-17 (ligand, Printed mutations: H208Y, Q117N; Soluble protein carries an N-terminal His tag) DGPAGSWEQLIQERRSHEVNPAAHLTGANSSLTGSGGPLLWETNLGLAFLRGLSYHDGALVVTKAGYYYIYSKVQLGGVGCPLGLASTITHGLYKRTPRYPEELELLVSQQSPCGRATSSSRVWWDSSFLGGVVYLEAGEKVVVRVLDERLVRLRDGTRSYFGAFMV
Outgoing: 0.0805

Incoming: Can you handle LIGHT-46 (ligand, Printed mutations: L126M, K214E; Soluble protein carries an N-terminal His tag) DGPAGSWEQLIQERRSHEVNPAAHLTGANSSLTGSGGPLLWETQLGLAFLRGMSYHDGALVVTKAGYYYIYSKVQLGGVGCPLGLASTITHGLYKRTPRYPEELELLVSQQSPCGRATSSSRVWWDSSFLGGVVHLEAGEEVVVRVLDERLVRLRDGTRSYFGAFMV next?
Outgoing: 0.0675

Incoming: Note, next up: LIGHT-33 (ligand, Printed mutations: T161P, L220S; Soluble protein carries an N-terminal His tag) DGPAGSWEQLIQERRSHEVNPAAHLTGANSSLTGSGGPLLWETQLGLAFLRGLSYHDGALVVTKAGYYYIYSKVQLGGVGCPLGLASPITHGLYKRTPRYPEELELLVSQQSPCGRATSSSRVWWDSSFLGGVVHLEAGEKVVVRVSDERLVRLRDGTRSYFGAFMV
Outgoing: 0.0612

Incoming: Thanks! And LIGHT-2 (ligand, Printed mutations: R189S, W198Q, R228L; Soluble protein carries an N-terminal His tag) DGPAGSWEQLIQERRSHEVNPAAHLTGANSSLTGSGGPLLWETQLGLAFLRGLSYHDGALVVTKAGYYYIYSKVQLGGVGCPLGLASTITHGLYKRTPRYPEELELLVSQQSPCGSATSSSRVWQDSSFLGGVVHLEAGEKVVVRVLDERLVRLLDGTRSYFGAFMV ?
Outgoing: 0.0762

Incoming: What do you have for LIGHT-35 (ligand, Printed mutations: T161S, L220S, E222N; Soluble protein carries an N-terminal His tag) DGPAGSWEQLIQERRSHEVNPAAHLTGANSSLTGSGGPLLWETQLGLAFLRGLSYHDGALVVTKAGYYYIYSKVQLGGVGCPLGLASSITHGLYKRTPRYPEELELLVSQQSPCGRATSSSRVWWDSSFLGGVVHLEAGEKVVVRVSDNRLVRLRDGTRSYFGAFMV ?
Outgoing: 0.0703

Incoming: Next up: LIGHT-21 (ligand, Printed mutations: S160G, T161P, L220T; Soluble protein carries an N-terminal His tag) DGPAGSWEQLIQERRSHEVNPAAHLTGANSSLTGSGGPLLWETQLGLAFLRGLSYHDGALVVTKAGYYYIYSKVQLGGVGCPLGLAGPITHGLYKRTPRYPEELELLVSQQSPCGRATSSSRVWWDSSFLGGVVHLEAGEKVVVRVTDERLVRLRDGTRSYFGAFMV
Outgoing: 0.0715

Incoming: Cool, now LIGHT-47 (ligand, Printed mutations: L126M, A190V, H208Y; Soluble protein carries an N-terminal His tag) DGPAGSWEQLIQERRSHEVNPAAHLTGANSSLTGSGGPLLWETQLGLAFLRGMSYHDGALVVTKAGYYYIYSKVQLGGVGCPLGLASTITHGLYKRTPRYPEELELLVSQQSPCGRVTSSSRVWWDSSFLGGVVYLEAGEKVVVRVLDERLVRLRDGTRSYFGAFMV
Outgoing: 0.228

Incoming: Next binder up: LIGHT-16 (ligand, Printed mutations: Q117H, L158M, E213D; Soluble protein carries an N-terminal His tag) DGPAGSWEQLIQERRSHEVNPAAHLTGANSSLTGSGGPLLWETHLGLAFLRGLSYHDGALVVTKAGYYYIYSKVQLGGVGCPLGMASTITHGLYKRTPRYPEELELLVSQQSPCGRATSSSRVWWDSSFLGGVVHLEAGDKVVVRVLDERLVRLRDGTRSYFGAFMV
Outgoing: 0.16
